- TEST_PROTOCOL: Liver microsome stability
- Format: in vitro ADME
- SETUP_CONDITIONS: dog liver microsomes 0.25 mg/mL, 1 μM compound, 37° C., 30 minutes, NADPH
RECORDED_METRIC: Dog (%) amount of substrate remaining after the reaction
Numbers only, in %.

// worked examples, Dog (%) amount of substrate remaining after the reaction included
1. CC(C)n1c(=O)n(C(C)C)c2cc(NN=C(C#N)C#N)ccc21 = 86.1
2. CC(C)n1c(=O)oc2cc(NN=C(C#N)C#N)ccc21 = 95.6
3. CC(C)n1ccc2ccc(NN=C(C#N)C#N)cc2c1=O = 6.4
4. N#CC(C#N)=NNc1ccc2c(c1)oc(=O)n2C(F)F = 72.1

// for each compound below, give its Dog (%) amount of substrate remaining after the reaction
1. Cn1c(=O)n(C)c2cc(NN=C(C#N)C#N)c(Cl)cc21
2. N#CC(C#N)=NNc1ccc2c(c1)n(C(F)F)c(=O)n2C(F)F
3. CC(C)n1ccc2c(NN=C(C#N)C#N)cccc2c1=O

[98.1, 88.1, 95]

The values you see were collected from patent US12590066B2.
